Origin of the recorded values: PubChem BioAssay (NCATS)

System: MKL-2
ASSAY EXPLANATION: qHTS assay to identify novel small-molecules to repurpose for Merkel cell carcinoma treatment (AID 1296009); note: % is set by controls: 0 for no effect and ±100 for the full control effect; nearly all actives have a fitted effect of over 60% in size
ASSAY CONDITIONS: MCC and control cell lines, CellTiter-Glo viability, 72 h; series mostly up to 46 µM
Records with an inconclusive call do not appear. The source made the active and inactive calls. Calls come from the whole dose curve; as a rule, active = well fitted inhibition curve with a large enough effect; inconclusive = small, poorly fitted or top-dose-only effect; inactive = flat fitted curve, though single readings scatter.
Entry note: the call must match one of active, inactive

Sample answers from the record:
CCN(CC)CCn1c(=O)c(Cc2ccc(OC)cc2)nc2ccccc21 = inactive
Nc1ccc(S(=O)(=O)Nc2ccccn2)cc1 = inactive
CN(CCOc1ccc(CC2SC(=O)NC2=O)cc1)c1ccccn1 (configuration not stated) = inactive
CC(=O)CC(c1ccccc1)c1c(O)c2ccccc2oc1=O (configuration not stated) = inactive
COC(c1ccccc1)(c1ccccc1)[C@H](Oc1nc(C)cc(C)n1)C(=O)O = inactive

Lookup: Check the results log: what was the call for `CCCN[C@H]1CCc2nc(N)sc2C1` ?
Found: inactive

Lookup: Check the results log: what was the call for Cc1oc(=O)oc1CN1CCN(c2cc3c(cc2F)c(=O)c(C(=O)O)c2n3C(C)S2)CC1 (configuration not stated) ?
Found: inactive

---

ASSAY EXPLANATION: qHTS profiling of the MIPE4 collection as inhibitors of Plasmodium falciparum (HB3) proliferation (AID 743347);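 note: plate controls were DMSO vehicle wells for no effect and artemisinin wells for full effect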
ASSAY CONDITIONS: P. falciparum HB3 in erythrocytes, SYBR Green DNA, 72 h; at 28.5 µM (top of the series) unless noted
Reported growth, % of control values are given for each entry in this list.
Numeric answer only, unit % assumed.

Before answering, review these 5 worked examples.
Cc1nnc(NS(=O)(=O)c2ccc(N)cc2)s1 = 38.9
Nc1nc(N)c2nc(CNc3ccc(C(=O)NC(CCC(=O)O)C(=O)O)cc3)cnc2n1 (centres undefined) = 23.4
CCOC(=O)[C@H](CCc1ccccc1)N[C@H]1CCc2ccccc2N(CC(=O)O)C1=O = 11.1
NC1(c2ccc(-c3nc4ccn5c(=O)[nH]nc5c4cc3-c3ccccc3)cc2)CCC1 = 8.07
O=P(O)(O)C(O)(Cc1cccnc1)P(=O)(O)O = 100

Lookup: Tell me growth, % of control reported for CC(C)C1CCC(C(=O)N[C@H](Cc2ccccc2)C(=O)O)CC1 (some centres undefined)
Found: 85.4

Lookup: Tell me growth, % of control reported for `O=C(O)c1cn(C2CC2)c2cc(N3CCNCC3)c(F)cc2c1=O`
Found: 76.4

Lookup: Tell me growth, % of control reported for `COc1ncnc(NS(=O)(=O)c2ccc(N)cc2)c1OC`
Found: 747

Lookup: Tell me growth, % of control reported for `CNC(=O)c1cc(Oc2ccc(NC(=O)Nc3ccc(Cl)c(C(F)(F)F)c3)cc2)ccn1`
Found: 12.2

---

ASSAY EXPLANATION: qHTS drug screen for cell cycle checkpoint inhibitors in PARPi-resistant BRCA-mutant ovarian cancer cell lines. (AID 1963452)
ASSAY CONDITIONS: PEO1/OlaR viability, CellTiter-Glo luminescence, 96 h; measured here: PEO1 parental Z-AUC; stronger effect = lower value
MEASURED PROPERTY: Z-AUC
Enter a number only.

Before answering, review these 8 worked examples.
O=c1cc(O)c(Cl)c[nH]1 = 1.19
O=C(O)CSCC(=O)NC1CCSC1=O (centres undefined) = 0.644
Nc1nc(N)c2nc(CNc3ccc(C(=O)NC(CCC(=O)O)C(=O)O)cc3)cnc2n1 (centres undefined) = 0.192
COc1c(N2CCNC(C)C2)c(F)cc2c(=O)c(C(=O)O)cn(C3CC3)c12 (centres undefined) = 0.836
S=P(N1CC1)(N1CC1)N1CC1 = 1.48
COc1ccc2cc3[n+](cc2c1OC)CCc1cc2c(cc1-3)OCO2 = -0.712
NC(=O)c1cccc(N)c1 = 1.33
CCC(=O)O[C@]1(C(=O)SCF)[C@H](C)C[C@H]2[C@@H]3C[C@H](F)C4=CC(=O)C=C[C@]4(C)[C@@]3(F)[C@@H](O)C[C@@]21C = -0.0288

Then there is this compound:
Lookup: Tell me Z-AUC reported for `CCn1cc(C(=O)O)c(=O)c2cc(F)c(N3CCN(C)CC3)cc21`
Found: 0.931

---

ASSAY EXPLANATION: Quantitative High-Throughput drug screen in 47 multiple myeloma cell lines against the NCATS MIPE library collection: L363_DSMZ cell viability assay (AID 1918984); note: nearly all actives have a fitted effect of over 40% in size
ASSAY CONDITIONS: L363 myeloma viability, CellTiter-Glo ATP luminescence, 48 h; series mostly up to 45.8 µM
Inconclusive results are not listed. Activity calls are given as the source filed them. The call rests on the fitted dose curve; in most records, active means well fitted cell-killing curve with a large enough effect; inconclusive means small, poorly fitted or top-dose-only effect, or effect the other way; inactive means no such curve, though single readings can be large or run the other way.
Entry note: the call must match one of label 1 (active), label 0 (inactive)

Sample answers from the record:
NC(N)=NC(N)=NCCc1ccccc1 = label 1
CNC(=O)c1cc(Oc2ccc(NC(=O)Nc3ccc(Cl)c(C(F)(F)F)c3)cc2)ccn1 = label 1
CC[C@H](C)C(=O)O[C@H]1C[C@@H](C)C=C2C=C[C@H](C)[C@H](CC[C@@H]3C[C@@H](O)CC(=O)O3)[C@H]21 = label 0
CC(=O)Oc1ccccc1C(=O)Nc1ncc([N+](=O)[O-])s1 = label 1
CN1CCN(c2c(F)cc3c(=O)c(C(=O)O)cn(CCF)c3c2F)CC1 = label 0
O=C(O)c1cc(=O)[nH]c(=O)[nH]1 = label 0
Cc1cc(NS(=O)(=O)c2ccc(N)cc2)no1 = label 0
CC(C)(C)C(=O)OCOP(=O)(COCCn1cnc2c(N)ncnc21)OCOC(=O)C(C)(C)C = label 1
O=C(O)c1cccnc1 = label 0
COc1cc(NCc2ccc3nc(N)nc(N)c3c2C)cc(OC)c1OC = label 1

Lookup: Check the results log: what was the call for `CCc1cc(C(N)=S)ccn1` ?
Found: label 0

Lookup: Check the results log: what was the call for COc1ccccc1OCC(O)COC(N)=O (centres undefined) ?
Found: label 0

Lookup: Check the results log: what was the call for `O=P(O)(O)C(O)(Cc1cccnc1)P(=O)(O)O` ?
Found: label 0

Lookup: Check the results log: what was the call for `CCOC(=O)c1ccc(C#Cc2ccc3c(c2)C(C)(C)CCS3)nc1` ?
Found: label 0

Lookup: Check the results log: what was the call for `Nc1[nH]c(=O)ncc1F` ?
Found: label 0

---

ASSAY EXPLANATION: qHTS of pediatric cancer cell lines to identify multiple opportunities for drug repurposing: Primary screen for DAOY cells (AID 1347090);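 note: plate controls were DMSO for no effect and bortezomib for full effect; nearly all actives have a fitted effect of over 55% in size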
ASSAY CONDITIONS: DAOY medulloblastoma viability, CellTiter-Glo luminescence, 48 h; series mostly up to 46 µM
Inconclusive results are not listed. Calls of active or inactive are those of the source. The call rests on the fitted dose curve; in most records, active means well fitted cell-killing curve with a large enough effect; inconclusive means small, poorly fitted or top-dose-only effect; inactive means flat fitted curve, though single readings scatter.
Entry note: the call must match one of True = active, False = inactive

CCCCCCNC(=O)n1cc(F)c(=O)[nH]c1=O = False

Lookup: Check the results log: what was the call for `CCn1cc(C(=O)O)c(=O)c2cc(F)c(N3CCNCC3)nc21` ?
Found: False

Lookup: Check the results log: what was the call for NS(=O)(=O)c1cc2c(cc1Cl)NC(C(Cl)Cl)NS2(=O)=O (stereo not drawn) ?
Found: False

Lookup: Check the results log: what was the call for `CCC(=O)O[C@]1(C(=O)SCF)[C@H](C)C[C@H]2[C@@H]3C[C@H](F)C4=CC(=O)C=C[C@]4(C)[C@@]3(F)[C@@H](O)C[C@@]21C` ?
Found: False

Lookup: Check the results log: what was the call for CN(CCOc1ccc(CC2SC(=O)NC2=O)cc1)c1ccccn1 (stereo not drawn) ?
Found: False

Lookup: Check the results log: what was the call for `CC(C)OC(=O)OCOP(=O)(CO[C@H](C)Cn1cnc2c(N)ncnc21)OCOC(=O)OC(C)C` ?
Found: False

Lookup: Check the results log: what was the call for `CCOC(=O)c1ccc(C#Cc2ccc3c(c2)C(C)(C)CCS3)nc1` ?
Found: False

Lookup: Check the results log: what was the call for `CCC(=O)O[C@]1(C(=O)CCl)[C@@H](C)C[C@H]2[C@@H]3CCC4=CC(=O)C=C[C@]4(C)[C@@]3(F)[C@@H](O)C[C@@]21C` ?
Found: False

Lookup: Check the results log: what was the call for CCN1CCCC1CNC(=O)c1cc(S(N)(=O)=O)ccc1OC (stereo not drawn) ?
Found: False

Lookup: Check the results log: what was the call for `CCN(CC)CCn1c(=O)c(Cc2ccc(OC)cc2)nc2ccccc21` ?
Found: False

Lookup: Check the results log: what was the call for `O=C(O)c1cc(=O)[nH]c(=O)[nH]1` ?
Found: False

Lookup: Check the results log: what was the call for `Cc1cccc(N(C)C(=S)Oc2ccc3ccccc3c2)c1` ?
Found: False

Lookup: Check the results log: what was the call for CC1CC2C3CCC4=CC(=O)C=C[C@]4(C)[C@@]3(F)[C@@H](O)C[C@]2(C)[C@@]1(O)C(=O)CO (stereo partly drawn) ?
Found: False

Lookup: Check the results log: what was the call for `CN1CCN(c2c(F)cc3c(=O)c(C(=O)O)cn4c3c2OCN4C)CC1` ?
Found: False

Lookup: Check the results log: what was the call for `O=S(=O)(O)CCS` ?
Found: False

Lookup: Check the results log: what was the call for CCC(C)(C)c1ccc(CC(C)CN2C[C@@H](C)O[C@@H](C)C2)cc1 (stereo partly drawn) ?
Found: False
